# Ki annotations
Target: Delta-type opioid receptor (Rattus norvegicus)
Sequence (P33533 whole entry): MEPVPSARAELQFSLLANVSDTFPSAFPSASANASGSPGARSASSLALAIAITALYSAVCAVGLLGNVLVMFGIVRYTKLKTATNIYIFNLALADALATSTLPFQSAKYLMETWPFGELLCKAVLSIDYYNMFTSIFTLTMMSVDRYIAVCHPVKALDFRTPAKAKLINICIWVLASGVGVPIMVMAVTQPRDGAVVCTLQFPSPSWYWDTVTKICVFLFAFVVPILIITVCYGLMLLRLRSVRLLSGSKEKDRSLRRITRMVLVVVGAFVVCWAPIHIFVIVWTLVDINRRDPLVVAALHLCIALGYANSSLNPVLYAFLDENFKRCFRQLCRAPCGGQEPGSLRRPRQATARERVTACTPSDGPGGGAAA
Test: Displacement of [3H]deltorphin 2 from delta opioid receptor in Sprague-Dawley rat brain P2 synaptosome membrane
Where a SMILES comes first, the peptide text is derived from it. [ ]: non-standard residue; d: D form. Dmt = Cc1cc(O)cc(C)c1C[C@H](N)C(=O)O
OBSERVABLE: Ki (nM)

INSERT INTO assay_data (compound, study_system, reading_unit, reported_measurement) VALUES
  ('Cc1cccc(C)c1C[C@H](NC(=O)[C@@H]1CCCN1C(=O)[C@@H](N)Cc1c(C)cc(O)cc1C)C(=O)N[C@@H](Cc1ccccc1)C(N)=O', 'Delta-type opioid receptor (Rattus norvegicus)', 'nM', 2.27),
  ('Cc1ccccc1C[C@H](NC(=O)[C@@H]1CCCN1C(=O)[C@@H](N)Cc1c(C)cc(O)cc1C)C(=O)N[C@@H](Cc1ccccc1)C(N)=O', 'Delta-type opioid receptor (Rattus norvegicus)', 'nM', 4.61),
  ('Cc1cc(C)cc(C[C@H](NC(=O)[C@@H]2CCCN2C(=O)[C@@H](N)Cc2c(C)cc(O)cc2C)C(=O)N[C@@H](Cc2ccccc2)C(N)=O)c1', 'Delta-type opioid receptor (Rattus norvegicus)', 'nM', 11.6),
  ('Cc1cc(O)cc(C)c1C[C@H](NC(=O)[C@@H]1CCCN1C(=O)[C@@H](N)Cc1ccc(O)cc1)C(=O)N[C@@H](Cc1ccccc1)C(N)=O (H-YP[Dmt]F-NH2)', 'Delta-type opioid receptor (Rattus norvegicus)', 'nM', 3020),
  ('Cc1cc(C)c(C[C@H](NC(=O)[C@@H]2CCCN2C(=O)[C@@H](N)Cc2ccc(O)cc2)C(=O)N[C@@H](Cc2ccccc2)C(N)=O)c(C)c1', 'Delta-type opioid receptor (Rattus norvegicus)', 'nM', 1360),
  ('Cc1cc(C)cc(C[C@H](NC(=O)[C@@H]2CCCN2C(=O)[C@@H](N)Cc2ccc(O)cc2)C(=O)N[C@@H](Cc2ccccc2)C(N)=O)c1', 'Delta-type opioid receptor (Rattus norvegicus)', 'nM', 3450),
  ('Cc1cccc(C)c1C[C@H](NC(=O)[C@@H]1CCCN1C(=O)[C@@H](N)Cc1ccc(O)cc1)C(=O)N[C@@H](Cc1ccccc1)C(N)=O', 'Delta-type opioid receptor (Rattus norvegicus)', 'nM', 1440),
  ('CCc1cccc(C)c1C[C@H](NC(=O)[C@@H]1CCCN1C(=O)[C@@H](N)Cc1ccc(O)cc1)C(=O)N[C@@H](Cc1ccccc1)C(N)=O', 'Delta-type opioid receptor (Rattus norvegicus)', 'nM', 491),
  ('CCc1cccc(C)c1C[C@H](NC(=O)[C@@H]1CCCN1C(=O)[C@@H](N)Cc1c(C)cc(O)cc1C)C(=O)N[C@@H](Cc1ccccc1)C(N)=O', 'Delta-type opioid receptor (Rattus norvegicus)', 'nM', 3.03),
  ('Cc1cccc(C(C)C)c1C[C@H](NC(=O)[C@@H]1CCCN1C(=O)[C@@H](N)Cc1ccc(O)cc1)C(=O)N[C@@H](Cc1ccccc1)C(N)=O', 'Delta-type opioid receptor (Rattus norvegicus)', 'nM', 543),
  ('Cc1ccccc1C[C@H](NC(=O)[C@@H]1CCCN1C(=O)[C@@H](N)Cc1ccc(O)cc1)C(=O)N[C@@H](Cc1ccccc1)C(N)=O', 'Delta-type opioid receptor (Rattus norvegicus)', 'nM', 1740),
  ('Cc1cc(O)cc(C)c1C[C@H](NC(=O)[C@@H]1CCCN1C(=O)[C@@H](N)Cc1c(C)cc(O)cc1C)C(=O)N[C@@H](Cc1ccccc1)C(N)=O (H-[Dmt]P[Dmt]F-NH2)', 'Delta-type opioid receptor (Rattus norvegicus)', 'nM', 80.8);

* * *

Biological target: Mu-type opioid receptor (Cavia porcellus, UniProt P97266)
Sequence (P97266 whole entry): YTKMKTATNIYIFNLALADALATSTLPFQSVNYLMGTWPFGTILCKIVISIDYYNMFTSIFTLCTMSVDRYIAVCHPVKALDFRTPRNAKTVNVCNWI
Assay: Agonist activity at mu opioid receptor in Hartley guinea pig ileum assessed as inhibition of electrically-stimulated muscle contraction
Where a SMILES comes first, the peptide text is derived from it. [ ]: non-standard residue; d: D form. Dmt = Cc1cc(O)cc(C)c1C[C@H](N)C(=O)O
OBSERVABLE: IC50 (nM)

INSERT INTO measurements (compound, reading_unit, reported_measurement) VALUES
  ('Cc1cc(C)cc(C[C@H](NC(=O)[C@@H]2CCCN2C(=O)[C@@H](N)Cc2c(C)cc(O)cc2C)C(=O)N[C@@H](Cc2ccccc2)C(N)=O)c1', 'nM', 14.4),
  ('Cc1cccc(C)c1C[C@H](NC(=O)[C@@H]1CCCN1C(=O)[C@@H](N)Cc1c(C)cc(O)cc1C)C(=O)N[C@@H](Cc1ccccc1)C(N)=O', 'nM', 0.12),
  ('Cc1ccccc1C[C@H](NC(=O)[C@@H]1CCCN1C(=O)[C@@H](N)Cc1c(C)cc(O)cc1C)C(=O)N[C@@H](Cc1ccccc1)C(N)=O', 'nM', 0.16),
  ('Cc1cc(O)cc(C)c1C[C@H](NC(=O)[C@@H]1CCCN1C(=O)[C@@H](N)Cc1ccc(O)cc1)C(=O)N[C@@H](Cc1ccccc1)C(N)=O (H-YP[Dmt]F-NH2)', 'nM', 541),
  ('Cc1cc(O)cc(C)c1C[C@H](N)C(=O)N1CCC[C@H]1C(=O)N[C@@H](Cc1ccccc1)C(=O)N[C@@H](Cc1ccccc1)C(N)=O', 'nM', 0.26),
  ('Cc1cc(O)cc(C)c1C[C@H](NC(=O)[C@@H]1CCCN1C(=O)[C@@H](N)Cc1c(C)cc(O)cc1C)C(=O)N[C@@H](Cc1ccccc1)C(N)=O (H-[Dmt]P[Dmt]F-NH2)', 'nM', 1.94),
  ('Cc1cccc(C)c1C[C@H](NC(=O)[C@@H]1CCCN1C(=O)[C@@H](N)Cc1ccc(O)cc1)C(=O)N[C@@H](Cc1ccccc1)C(N)=O', 'nM', 0.38),
  ('CCc1cccc(C)c1C[C@H](NC(=O)[C@@H]1CCCN1C(=O)[C@@H](N)Cc1ccc(O)cc1)C(=O)N[C@@H](Cc1ccccc1)C(N)=O', 'nM', 2.35),
  ('CCc1cccc(C)c1C[C@H](NC(=O)[C@@H]1CCCN1C(=O)[C@@H](N)Cc1c(C)cc(O)cc1C)C(=O)N[C@@H](Cc1ccccc1)C(N)=O', 'nM', 0.17),
  ('Cc1cc(C)c(C[C@H](NC(=O)[C@@H]2CCCN2C(=O)[C@@H](N)Cc2ccc(O)cc2)C(=O)N[C@@H](Cc2ccccc2)C(N)=O)c(C)c1', 'nM', 1.9),
  ('Cc1cc(O)cc(C)c1C[C@H](N)C(=O)N1CCC[C@H]1C(=O)N[C@@H](Cc1c(C)cccc1C(C)C)C(=O)N[C@@H](Cc1ccccc1)C(N)=O', 'nM', 0.2),
  ('Cc1cc(C)c(C[C@H](NC(=O)[C@@H]2CCCN2C(=O)[C@@H](N)Cc2c(C)cc(O)cc2C)C(=O)N[C@@H](Cc2ccccc2)C(N)=O)c(C)c1', 'nM', 0.21),
  ('Cc1cccc(C(C)C)c1C[C@H](NC(=O)[C@@H]1CCCN1C(=O)[C@@H](N)Cc1ccc(O)cc1)C(=O)N[C@@H](Cc1ccccc1)C(N)=O', 'nM', 2.74),
  ('Cc1ccccc1C[C@H](NC(=O)[C@@H]1CCCN1C(=O)[C@@H](N)Cc1ccc(O)cc1)C(=O)N[C@@H](Cc1ccccc1)C(N)=O', 'nM', 1.33),
  ('Cc1cc(C)cc(C[C@H](NC(=O)[C@@H]2CCCN2C(=O)[C@@H](N)Cc2ccc(O)cc2)C(=O)N[C@@H](Cc2ccccc2)C(N)=O)c1', 'nM', 389);

* * *

pKi: −log10 of the molar value.
A set of compounds tested on Kappa-type opioid receptor (Cavia porcellus, UniProt P41144), with measured pKi:
OBSERVABLE: pKi

INSERT INTO measurements (test_smiles, study_system, sign_qualifier, reported_measurement) VALUES
  ('Cc1ccccc1C[C@H](NC(=O)[C@@H]1CCCN1C(=O)[C@@H](N)Cc1c(C)cc(O)cc1C)C(=O)N[C@@H](Cc1ccccc1)C(N)=O', 'Kappa-type opioid receptor (Cavia porcellus, UniProt P41144)', '=', 6.75),
  ('Cc1cccc(C)c1C[C@H](NC(=O)[C@@H]1CCCN1C(=O)[C@@H](N)Cc1ccc(O)cc1)C(=O)N[C@@H](Cc1ccccc1)C(N)=O', 'Kappa-type opioid receptor (Cavia porcellus, UniProt P41144)', '<', 5.40),
  ('Cc1cccc(C)c1C[C@H](NC(=O)[C@@H]1CCCN1C(=O)[C@@H](N)Cc1c(C)cc(O)cc1C)C(=O)N[C@@H](Cc1ccccc1)C(N)=O', 'Kappa-type opioid receptor (Cavia porcellus, UniProt P41144)', '=', 7.03);

* * *

Molecular target: Mu-type opioid receptor (Rattus norvegicus)
Sequence (P33535 whole entry): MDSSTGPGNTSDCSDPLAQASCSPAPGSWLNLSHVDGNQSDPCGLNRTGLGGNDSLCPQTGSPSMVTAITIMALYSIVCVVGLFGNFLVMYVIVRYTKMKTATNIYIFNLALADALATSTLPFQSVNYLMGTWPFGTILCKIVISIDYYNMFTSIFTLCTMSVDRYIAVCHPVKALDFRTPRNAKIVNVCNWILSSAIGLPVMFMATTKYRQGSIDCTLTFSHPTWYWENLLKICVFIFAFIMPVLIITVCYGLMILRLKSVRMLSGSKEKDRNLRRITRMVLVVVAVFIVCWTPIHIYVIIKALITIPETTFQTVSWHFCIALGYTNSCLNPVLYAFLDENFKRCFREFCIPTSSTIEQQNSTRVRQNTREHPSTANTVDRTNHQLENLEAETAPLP
Where a SMILES comes first, the peptide text is derived from it. [ ]: non-standard residue; d: D form. Dmt = Cc1cc(O)cc(C)c1C[C@H](N)C(=O)O
Lab note: cut-off is 0.3 nM. Strictly less in Ki is Yes. Exactly 0.3 nM or more is No.

INSERT INTO results (compound, study_system, group_label) VALUES
  ('Cc1ccccc1C[C@H](NC(=O)[C@@H]1CCCN1C(=O)[C@@H](N)Cc1ccc(O)cc1)C(=O)N[C@@H](Cc1ccccc1)C(N)=O', 'Mu-type opioid receptor (Rattus norvegicus)', 'Yes'),
  ('Cc1cccc(C)c1C[C@H](NC(=O)[C@@H]1CCCN1C(=O)[C@@H](N)Cc1c(C)cc(O)cc1C)C(=O)N[C@@H](Cc1ccccc1)C(N)=O', 'Mu-type opioid receptor (Rattus norvegicus)', 'Yes'),
  ('Cc1cc(C)cc(C[C@H](NC(=O)[C@@H]2CCCN2C(=O)[C@@H](N)Cc2c(C)cc(O)cc2C)C(=O)N[C@@H](Cc2ccccc2)C(N)=O)c1', 'Mu-type opioid receptor (Rattus norvegicus)', 'Yes'),
  ('Cc1cc(C)c(C[C@H](NC(=O)[C@@H]2CCCN2C(=O)[C@@H](N)Cc2c(C)cc(O)cc2C)C(=O)N[C@@H](Cc2ccccc2)C(N)=O)c(C)c1', 'Mu-type opioid receptor (Rattus norvegicus)', 'Yes'),
  ('Cc1ccccc1C[C@H](NC(=O)[C@@H]1CCCN1C(=O)[C@@H](N)Cc1c(C)cc(O)cc1C)C(=O)N[C@@H](Cc1ccccc1)C(N)=O', 'Mu-type opioid receptor (Rattus norvegicus)', 'Yes'),
  ('CCc1cccc(C)c1C[C@H](NC(=O)[C@@H]1CCCN1C(=O)[C@@H](N)Cc1c(C)cc(O)cc1C)C(=O)N[C@@H](Cc1ccccc1)C(N)=O', 'Mu-type opioid receptor (Rattus norvegicus)', 'Yes'),
  ('Cc1cc(O)cc(C)c1C[C@H](NC(=O)[C@@H]1CCCN1C(=O)[C@@H](N)Cc1ccc(O)cc1)C(=O)N[C@@H](Cc1ccccc1)C(N)=O (H-YP[Dmt]F-NH2)', 'Mu-type opioid receptor (Rattus norvegicus)', 'No'),
  ('Cc1cc(C)cc(C[C@H](NC(=O)[C@@H]2CCCN2C(=O)[C@@H](N)Cc2ccc(O)cc2)C(=O)N[C@@H](Cc2ccccc2)C(N)=O)c1', 'Mu-type opioid receptor (Rattus norvegicus)', 'No'),
  ('Cc1cc(O)cc(C)c1C[C@H](NC(=O)[C@@H]1CCCN1C(=O)[C@@H](N)Cc1c(C)cc(O)cc1C)C(=O)N[C@@H](Cc1ccccc1)C(N)=O (H-[Dmt]P[Dmt]F-NH2)', 'Mu-type opioid receptor (Rattus norvegicus)', 'Yes'),
  ('Cc1cccc(C)c1C[C@H](NC(=O)[C@@H]1CCCN1C(=O)[C@@H](N)Cc1ccc(O)cc1)C(=O)N[C@@H](Cc1ccccc1)C(N)=O', 'Mu-type opioid receptor (Rattus norvegicus)', 'Yes'),
  ('Cc1cc(C)c(C[C@H](NC(=O)[C@@H]2CCCN2C(=O)[C@@H](N)Cc2ccc(O)cc2)C(=O)N[C@@H](Cc2ccccc2)C(N)=O)c(C)c1', 'Mu-type opioid receptor (Rattus norvegicus)', 'No'),
  ('Cc1cc(O)cc(C)c1C[C@H](N)C(=O)N1CCC[C@H]1C(=O)N[C@@H](Cc1c(C)cccc1C(C)C)C(=O)N[C@@H](Cc1ccccc1)C(N)=O', 'Mu-type opioid receptor (Rattus norvegicus)', 'No'),
  ('CCc1cccc(C)c1C[C@H](NC(=O)[C@@H]1CCCN1C(=O)[C@@H](N)Cc1ccc(O)cc1)C(=O)N[C@@H](Cc1ccccc1)C(N)=O', 'Mu-type opioid receptor (Rattus norvegicus)', 'No'),
  ('Cc1cccc(C(C)C)c1C[C@H](NC(=O)[C@@H]1CCCN1C(=O)[C@@H](N)Cc1ccc(O)cc1)C(=O)N[C@@H](Cc1ccccc1)C(N)=O', 'Mu-type opioid receptor (Rattus norvegicus)', 'No'),
  ('Cc1cc(O)cc(C)c1C[C@H](N)C(=O)N1CCC[C@H]1C(=O)N[C@@H](Cc1ccccc1)C(=O)N[C@@H](Cc1ccccc1)C(N)=O', 'Mu-type opioid receptor (Rattus norvegicus)', 'Yes');
